Target of assay: purified human HDAC6 (Homo sapiens, UniProt Q9UBN7)
Sequence (Q9UBN7 1-1215): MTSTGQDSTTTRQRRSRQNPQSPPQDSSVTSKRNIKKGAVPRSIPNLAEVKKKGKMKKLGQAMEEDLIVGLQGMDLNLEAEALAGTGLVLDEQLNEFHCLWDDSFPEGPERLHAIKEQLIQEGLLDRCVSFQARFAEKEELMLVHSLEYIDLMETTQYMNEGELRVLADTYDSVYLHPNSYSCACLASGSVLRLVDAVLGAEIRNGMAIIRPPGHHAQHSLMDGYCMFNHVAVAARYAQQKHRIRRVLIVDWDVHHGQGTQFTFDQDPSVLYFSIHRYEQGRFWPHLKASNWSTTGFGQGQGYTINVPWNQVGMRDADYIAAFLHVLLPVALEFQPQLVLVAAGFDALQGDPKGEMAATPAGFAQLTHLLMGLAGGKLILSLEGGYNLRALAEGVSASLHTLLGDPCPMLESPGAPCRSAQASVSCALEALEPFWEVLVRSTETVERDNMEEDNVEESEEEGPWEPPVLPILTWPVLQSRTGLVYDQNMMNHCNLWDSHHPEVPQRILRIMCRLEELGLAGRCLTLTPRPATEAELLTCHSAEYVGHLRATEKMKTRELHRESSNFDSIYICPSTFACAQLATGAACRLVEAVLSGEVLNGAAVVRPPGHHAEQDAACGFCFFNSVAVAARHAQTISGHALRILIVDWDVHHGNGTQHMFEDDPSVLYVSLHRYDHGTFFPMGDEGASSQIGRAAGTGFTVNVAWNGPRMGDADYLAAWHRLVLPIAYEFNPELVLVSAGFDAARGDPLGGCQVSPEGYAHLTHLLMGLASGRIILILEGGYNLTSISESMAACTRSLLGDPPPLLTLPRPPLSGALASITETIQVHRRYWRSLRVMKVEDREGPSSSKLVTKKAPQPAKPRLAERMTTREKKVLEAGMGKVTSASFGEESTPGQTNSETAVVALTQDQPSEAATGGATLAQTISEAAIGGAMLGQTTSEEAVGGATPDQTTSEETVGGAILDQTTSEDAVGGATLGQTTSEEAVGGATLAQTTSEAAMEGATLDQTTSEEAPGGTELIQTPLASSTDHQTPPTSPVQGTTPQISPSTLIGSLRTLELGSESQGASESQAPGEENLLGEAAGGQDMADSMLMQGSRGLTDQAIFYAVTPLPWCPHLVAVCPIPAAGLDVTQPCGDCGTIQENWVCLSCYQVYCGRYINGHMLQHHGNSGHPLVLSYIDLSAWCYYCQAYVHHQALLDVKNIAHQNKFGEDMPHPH
I'd appreciate it if you could supply IC50 values for the items below.

Identify the reported IC50 for the following entry. O=C(NO)c1ccc2c(c1)CCN(C(=O)CC1CCCC1)C2
< 50 nM

Identify the reported IC50 for the following entry. O=C(NO)c1ccc2c(c1)CCCN(C(=O)c1cc3cc(Cl)ccc3o1)C2
50 to 100 nM

Identify the reported IC50 for the following entry. Cc1ccc(C(C)C(=O)N2CCc3cc(C(=O)NO)ccc3C2)cc1 (stereo not drawn)
50 to 100 nM

Identify the reported IC50 for the following entry. O=C(NO)c1ccc2c(c1)CCCN(C(=O)c1ccc3occc3c1)C2
100 to 500 nM

Identify the reported IC50 for the following entry. O=C(NO)c1ccc2c(c1)CCN(c1nc(-c3cccc(Cl)c3)cs1)C2
< 50 nM

Identify the reported IC50 for the following entry. O=C(NO)c1ccc2c(c1)CCN(C(=O)C13CC4CC(CC(O)(C4)C1)C3)C2
< 50 nM

Identify the reported IC50 for the following entry. Cc1c(-c2csc(N3CCc4cc(C(=O)NO)ccc4C3)n2)sc2ccccc12
50 to 100 nM

Identify the reported IC50 for the following entry. CC(=O)N/C(=C\c1ccccc1)C(=O)N1CCCc2cc(C(=O)NO)ccc2C1
100 to 500 nM

Now consider the entry below.
Identify the reported IC50 for the following entry. O=C(NO)c1ccc2c(c1)CCN(Cc1cccc(OC(F)(F)F)c1)C2
100 to 500 nM

Values compiled from patent US9096518B2.
